System: kochia (Bassia scoparia)
ASSAY METHOD TEXT: Test A preemergence, kochia
Format: in vivo
ASSAY CONDITIONS: Preemergence, 125 g ai/ha; visual injury on 0 to 100 scale (0 no effect, 100 complete control), approximately 10 days
Kindly supply the reported Kochia plant response rating values for the records listed here.
Number only, no unit.

INPUT: Param readout= Kochia plant response rating; system= kochia (Bassia scoparia); entry= COC(=O)N(c1cc(-c2ccnn(C)c2=O)c(C)cc1C)S(=O)(=O)C(F)(F)F ; returns value.
OUTPUT: 0

INPUT: Param readout= Kochia plant response rating; system= kochia (Bassia scoparia); entry= Cc1cc(Cl)c(N(S(=O)(=O)C(F)(F)F)S(=O)(=O)C(F)(F)F)cc1-c1cn(C)c(=O)n(C)c1=O ; returns value.
OUTPUT: 80

INPUT: Param readout= Kochia plant response rating; system= kochia (Bassia scoparia); entry= Cc1cc(C(=O)N2CCOC(C)(C)C2)cc(NS(=O)(=O)C(F)(F)F)c1Cl ; returns value.
OUTPUT: 50

INPUT: Param readout= Kochia plant response rating; system= kochia (Bassia scoparia); entry= Cc1cc(C)c(-n2nccc(Cl)c2=O)cc1NS(=O)(=O)C(F)(F)F ; returns value.
OUTPUT: 70
